# target.entity: GSTO1 (Homo sapiens, UniProt P78417)
# Sequence (P78417 1-241): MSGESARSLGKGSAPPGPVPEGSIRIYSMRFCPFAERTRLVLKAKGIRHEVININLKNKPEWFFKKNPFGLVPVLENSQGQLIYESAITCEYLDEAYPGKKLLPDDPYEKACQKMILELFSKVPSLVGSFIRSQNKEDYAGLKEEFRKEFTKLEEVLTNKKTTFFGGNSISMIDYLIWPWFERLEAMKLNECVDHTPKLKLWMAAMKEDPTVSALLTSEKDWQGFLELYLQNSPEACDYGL
# test.protocol: GSTO1 substrate assay (reduction of 4-NPG)
# study.conditions: 10 µM
endpoint.label: GSTO substrate assay % Inhibition at 10 µM (%)

Recorded results for 10 compounds are shown here.
O=C(CCl)NCC(=O)Nc1ccc(F)c(F)c1: 82.4
O=C(CCl)NCc1ccccc1CN1CCOCC1: 11.1
CC(C)(C)c1ccc(C(=O)NNC(=O)CCl)cc1: 42.7
O=C(CCl)NNC(=O)c1ccc(Br)cc1: 81.3
O=C(CCl)N1CCN(c2ncc(C(F)(F)F)cc2Cl)CC1: 94.6
CCN(Cc1ccc2c(c1)OCO2)C(=O)CCl: 103.4
CCOC(=O)c1sc(-c2ccccc2)cc1NC(=O)CCl: -1.5
N#Cc1cnn(-c2ccccc2)c1NC(=O)CCl: 84.5
CCOC(=O)c1c(NC(=O)CCl)sc2c1CCN(CC)C2: 77.2
CC(C)c1ccc(C(NC(=O)CCl)C(C)C)cc1 (stereo not drawn): 56.2

a: Cn1ccnc1C(NC(=O)CCl)c1ccccc1 (stereo not drawn)
b: Cc1cccc2sc(N(Cc3ccccc3)C(=O)CCl)nc12
I'm curious, which of these has a smaller GSTO substrate assay % Inhibition at 10 µM number: a or b ? Response format: the label of the selected entry. b
(b: 32.6%, a: 78.4%)

a: NC(=O)C1CN(C(=O)CCl)c2ccccc2O1 (stereo not drawn)
b: Cc1cc(C)c(-c2csc(NC(=O)CCl)n2)cc1C
Sorting by GSTO substrate assay % Inhibition at 10 µM in descending order, would a or b appear first? Response format: the label of the selected entry. a
